The measurements presented in this section are drawn from paper PMC10581520.

# Tested on: N-demethylation of DCIT; CYP2D15 (quinidine)
# Type: in vitro ADME, Beagle dog
# ASSAY CONDITIONS: Beagle, dog, liver microsomes, pH 7.4, probe DCIT 100 μM, formation of R-DDCIT
READOUT LABEL: inhibition at 1 h, 100 μM (%)
Return type: number; implicit unit %.

Looking up C=C[C@H]1C[N@@]2CC[C@H]1C[C@@H]2[C@@H](O)c1ccnc2ccc(OC)cc12 , I see its inhibition at 1 h, 100 μM listed as 61.6

---

# Test system: N-demethylation of DCIT; CYP2D15 (quinidine)
# Type: in vitro ADME, Beagle dog
# ASSAY CONDITIONS: Beagle, dog, liver microsomes, pH 7.4, probe DCIT 10 μM, formation of R-DDCIT
READOUT LABEL: inhibition at 1 h, 100 μM
Don't forget the unit after the number, please.

Form: molecule = C=C[C@H]1C[N@@]2CC[C@H]1C[C@@H]2[C@@H](O)c1ccnc2ccc(OC)cc12 [quinidine] ; inhibition at 1 h, 100 μM = 80.5%
